Answer each item with its documented Log SP.
- method: Sweet potency as logarithm of sweet potency (log SP) relative to sucrose
- Format: functional
Give bare numbers.

Example molecules with recorded Log SP:
{"molecule": "N[C@H](CC(=O)O)C(=O)NCCOC(=O)C1CCC1", "measured.attribute": "Log SP", "reported.result": 0.99}
{"molecule": "N[C@H](CC(=O)O)C(=O)NCC(=O)OC1CCCCC1", "measured.attribute": "Log SP", "reported.result": 1.02}
{"molecule": "CCCCC(=O)OC[C@H](C)NC(=O)[C@H](N)CC(=O)O", "measured.attribute": "Log SP", "reported.result": 0.6}
{"molecule": "N[C@H](CC(=O)O)C(=O)N[C@@H](CO)C(=O)OC1CCCCC1", "measured.attribute": "Log SP", "reported.result": 1.72}
{"molecule": "CC[C@@H](COC(=O)C1CCC1)NC(=O)[C@H](N)CC(=O)O", "measured.attribute": "Log SP", "reported.result": 1.4}

Each molecule below has a recorded value; state its Log SP.
1. CCCCC[C@H](C)NC(=O)[C@H](N)CC(=O)O (stereo in doubt; 10)
2. CCOC(=O)[C@H](NC(=O)[C@H](N)CC(=O)O)C(=O)OC1CCCCC1
3. CC(C)COC(=O)[C@H](NC(=O)[C@@H](N)CC(=O)O)[C@H](C)O
4. CCOC(=O)[C@H](CO)NC(=O)[C@H](N)CC(=O)O
5. COC(=O)C(C)C[C@H](NC(=O)[C@@H](N)CC(=O)O)C(=O)OC (some centres undefined)
6. CCCOC(=O)[C@H](C)NC(=O)[C@H](N)CC(=O)O
7. CCC(CC)OC(=O)[C@@H](NC(=O)[C@H](N)CC(=O)O)C(=O)OC (stereo in doubt; 198)

Response:
1.43
2.68
1.36
1.92
1.15
2.1
2.79

Batch: Log SP for all items listed.
1. COC(=O)C(NC(=O)[C@@H](N)CC(=O)O)C(=O)OC1CCCC(C)C1 (some centres undefined)
2. C[C@@H](CC1CCCCC1)NC(=O)[C@H](N)CC(=O)O

Response:
[3.02, 1.57]

Respectfully, I request Log SP for each entry included below.
1. CCCCC[C@H](C)NC(=O)[C@H](N)CC(=O)O (stereo in doubt; 12)
2. C[C@@H](COC(=O)C1CC1)NC(=O)[C@H](N)CC(=O)O

Response:
1. 1.56
2. 2.18

----------
- method: Sweet potency as logarithm of sweet potency (log SP) relative to sucrose
- Format: functional
Would you mind telling me the reported Log SP of each entry?
Give bare numbers.

{"entry.smiles": "CCC(=O)OC[C@H](CO)NC(=O)[C@H](N)CC(=O)O", "Log SP": 1.99}
{"entry.smiles": "N[C@H](CC(=O)O)C(=O)N[C@@H](CO)COC(=O)C1CC1", "Log SP": 1.96}

Turning to the following compound.
Memo: COC(=O)CC[C@@H](NC(=O)[C@H](N)CC(=O)O)C(=O)OC , reported Log SP: 2

----------
- method: Sweet potency as logarithm of sweet potency (log SP) relative to sucrose
- Type: functional
We'd kindly ask you to apply these Log SP classes: one (below 1), two (1 to below 2), three (2 or more)

Consider the worked cases shown below.
{"molecule": "COC(=O)[C@H](C)NC(=O)[C@H](N)CC(=O)O", "class.name": "two"}
{"molecule": "CCCCCC[C@@H](NC(=O)[C@H](N)CC(=O)O)C(=O)OC", "class.name": "three"}
{"molecule": "CCC(C)[C@@H](NC(=O)[C@@H](N)CC(=O)O)C(=O)OC(C)C (stereo partly drawn)", "class.name": "one"}
{"molecule": "CC(C)[C@@H](COC(=O)C1CC1)NC(=O)[C@H](N)CC(=O)O", "class.name": "two"}
{"molecule": "N[C@H](CC(=O)O)C(=O)N[C@@H](CO)COC(=O)C1CCC1", "class.name": "two"}
{"molecule": "CCCC(=O)OC[C@H](CO)NC(=O)[C@H](N)CC(=O)O", "class.name": "one"}

Prompt: Would you mind sorting CC(C)OC(=O)[C@@H](NC(=O)[C@H](N)CC(=O)O)C(C)C into the appropriate category?
Response: three

Prompt: Textbook exercise: identify the category of the molecule given here, CC(C)[C@@H](COC(=O)C1CCC1)NC(=O)[C@H](N)CC(=O)O , according to its measured value.
Response: two

Prompt: Which bin should I file N[C@H](CC(=O)O)C(=O)NCCc1ccc(F)cc1 under?
Response: one

Prompt: Quick check: band for COC(=O)[C@@H](COC(C)(C)C)NC(=O)[C@H](N)CC(=O)O
Response: three

Prompt: The entry to classify is COC(=O)[C@H](NC(=O)[C@H](N)CC(=O)O)C(=O)OC1CCCC1 ; which class holds it?
Response: three

Origin of measurements: ChEMBL document CHEMBL1121833
